System: sperm
Assay: Post thaw DNA fragmentation Elk (Example 3)
Format: cell-based
Settings: elk, 48 h
measured-metric: DNA fragmentation Post Sort
Put your answer as a value accompanied by its unit after it.

[in] Any idea what DNA fragmentation Post Sort was measured for COc1cc(S(=O)(=O)O)c(C)cc1N=Nc1c(O)ccc2cc(S(=O)(=O)O)ccc12 [Red 40, reference compound] ?
[out] 0.7%

----------
Tested on: sperm
Assay: Post thaw DNA fragmentation Elk (Example 3)
Format: cell-based
Details: post thaw 0 HR
measured-metric: DNA fragmentation Pre-sort
# include the unit after the value

[in] # get_value(readout='DNA fragmentation Pre-sort', item= O=S(=O)([O-])c1ccc(N=Nc2c(O)ccc3cc(S(=O)(=O)[O-])ccc23)cc1.[Na+].[Na+] )
[out] 2.3%

Ref: patent US9581587B2
